Origin of values: ChEMBL document CHEMBL3351250

- Assay procedure: Cytotoxicity against mouse RAW264.7 cells assessed as reduction in survival rate after 24 hrs by MTT assay
- Assay type: cell-based
Observed property: CC50 at 24 h

COc1ccc(C(=O)O)c(O)c1	> 40 µM

Given item `COc1ccccc1C(=O)Nc1ccc(Cl)cc1F` , the value recorded as its CC50 at 24 h is > 40 µM

Given item `COc1ccc(C(=O)Nc2ccc(Cl)cc2F)c(OCc2ccc(F)cc2F)c1` , the value recorded as its CC50 at 24 h is > 40 µM

Given item `COc1ccc(C(=O)Nc2ccc(F)cc2F)c(OCc2ccc(F)cc2F)c1` , the value recorded as its CC50 at 24 h is > 40 µM

Given item `COc1ccccc1C(=O)Nc1ccc(F)cc1F` , the value recorded as its CC50 at 24 h is > 40 µM

Given item `O=C(Nc1ccc(F)cc1F)c1ccccc1` , the value recorded as its CC50 at 24 h is > 40 µM

Given item `COc1ccc(C(=O)Nc2ccc(-c3ccc(Cl)cc3Cl)cc2F)c(O)c1` , the value recorded as its CC50 at 24 h is > 40 µM

Given item `COc1ccc(C(=O)Nc2ccc(F)cc2F)cc1` , the value recorded as its CC50 at 24 h is > 40 µM

Given item `O=C(Nc1ccc(Cl)cc1F)c1ccccc1O` , the value recorded as its CC50 at 24 h is 23.2 µM

Given item `O=C(Nc1ccc(F)cc1F)c1ccccc1OCc1ccc(F)cc1F` , the value recorded as its CC50 at 24 h is > 40 µM

Given item `COc1ccc(C(=O)Nc2ccc(Cl)cc2F)cc1` , the value recorded as its CC50 at 24 h is > 40 µM

Given item `COc1ccc(C(=O)Nc2ccc(F)cc2F)c(OC)c1` , the value recorded as its CC50 at 24 h is > 40 µM

Given item `O=C(Nc1ccc(Cl)cc1F)c1ccccc1OCc1ccc(F)cc1F` , the value recorded as its CC50 at 24 h is > 40 µM

Given item `O=C(Nc1ccc(Cl)cc1F)c1ccccc1` , the value recorded as its CC50 at 24 h is > 40 µM

Given item `COc1ccc2c(=O)n(-c3ccc(Cl)cc3F)c(=O)oc2c1` , the value recorded as its CC50 at 24 h is > 40 µM

Given item `COc1ccc(C(=O)Nc2ccc(I)cc2F)c(OC)c1` , the value recorded as its CC50 at 24 h is > 40 µM

Given item `COc1ccc(C(=O)Nc2ccc(I)cc2F)cc1` , the value recorded as its CC50 at 24 h is 32.8 µM

Given item `O=C(Nc1ccc(-c2ccc(Cl)cc2F)cc1F)c1ccccc1O` , the value recorded as its CC50 at 24 h is 27.2 µM
